Taken from ChEMBL document CHEMBL5252669.

Quick reference for selectivity ratio among some molecules
assay: Selectivity index, ratio of CC50 for human MRC5 cells to IC50 for Acinetobacter baumannii ATCC 17978; assay type: toxicity; details: read-out: Ratio CC50/IC50
Just the number, please, no unit attached.

The cases that follow already have their selectivity ratio on record.
[[record]]
chemical_smiles = "CCCCCCOC(=O)[C@H]1O[C@@H](n2ccc(N)nc2=O)C=C[C@@H]1NC(=O)C[C@@H](N)CCN(C)C(=N)N"
value = 0.3

[[record]]
chemical_smiles = "C#CCCCOC(=O)[C@H]1O[C@@H](n2ccc(N)nc2=O)C=C[C@@H]1NC(=O)C[C@@H](N)CCN(C)C(=N)N"
value = 0.8


Q) Recorded selectivity ratio of COC(=O)[C@H]1O[C@@H](n2ccc(N)nc2=O)C=C[C@@H]1NC(=O)C[C@@H](N)CCN(C)C(=N)N , please.
A) 1.8

====

assay: Selectivity index, ratio of CC50 for human MRC5 cells to IC50 for Klebsiella pneumoniae ATCC 29665; format: toxicity; conditions: read-out: Ratio CC50/IC50
As shown below, each of these compounds has a reported selectivity ratio value.

Recorded selectivity ratio, per entry:
[[record]]
chemical_smiles = "COC(=O)[C@H]1O[C@@H](n2ccc(N)nc2=O)C=C[C@@H]1NC(=O)C[C@@H](N)CCN(C)C(=N)N"
property = "selectivity ratio"
value = 0.5

[[record]]
chemical_smiles = "CCOC(=O)[C@H]1O[C@@H](n2ccc(N)nc2=O)C=C[C@@H]1NC(=O)C[C@@H](N)CCN(C)C(=N)N.Cl.Cl.Cl"
property = "selectivity ratio"
value = 0.1

[[record]]
chemical_smiles = "CN(CC[C@H](N)CC(=O)N[C@H]1C=C[C@H](n2ccc(N)nc2=O)O[C@@H]1C(=O)OCc1ccccc1)C(=N)N"
property = "selectivity ratio"
value = 0.3

[[record]]
chemical_smiles = "CCCOC(=O)[C@H]1O[C@@H](n2ccc(N)nc2=O)C=C[C@@H]1NC(=O)C[C@@H](N)CCN(C)C(=N)N"
property = "selectivity ratio"
value = 0.2

[[record]]
chemical_smiles = "CN(CC[C@H](N)CC(=O)N[C@H]1C=C[C@H](n2ccc(N)nc2=O)O[C@@H]1C(=O)O)C(=N)N.Cl"
property = "selectivity ratio"
value = 0.2


Q) May I ask what selectivity ratio has been recorded for C#CCCCOC(=O)[C@H]1O[C@@H](n2ccc(N)nc2=O)C=C[C@@H]1NC(=O)C[C@@H](N)CCN(C)C(=N)N ?
A) 0.5

Q) Fill in: selectivity ratio of CN(CC[C@H](N)CC(=O)N[C@H]1C=C[C@H](n2ccc(N)nc2=O)O[C@@H]1C(=O)OCCc1ccccc1)C(=N)N is ___
A) 0.3

====

test system: Staphylococcus aureus; test: Antibacterial activity against methicillin resistant Staphylococcus aureus ATCC 43300 incubated for 16 hrs by broth microdilution method; assay type: functional, organism-based; conditions: ATCC 43300, time 16 hrs
property: MIC (µg/mL)
Entry rule: numbers only, all in µg/mL.

Please review the following examples before continuing.
[[record]]
chemical_smiles = "C#CCCCOC(=O)[C@H]1O[C@@H](n2ccc(N)nc2=O)C=C[C@@H]1NC(=O)C[C@@H](N)CCN(C)C(=N)N"
value = 64

[[record]]
chemical_smiles = "COC(=O)[C@H]1O[C@@H](n2ccc(N)nc2=O)C=C[C@@H]1NC(=O)C[C@@H](N)CCN(C)C(=N)N"
value = 16


Q) Look up MIC with Staphylococcus aureus for this compound: CCCCCCOC(=O)[C@H]1O[C@@H](n2ccc(N)nc2=O)C=C[C@@H]1NC(=O)C[C@@H](N)CCN(C)C(=N)N
A) 128

====

tested on: Staphylococcus aureus; assay: Antibacterial activity against methicillin resistant Staphylococcus aureus ATCC 43300 incubated for 16 hrs by broth microdilution method; format: functional, organism-based; settings: ATCC 43300, time 16 hrs
property: MIC (µg/mL)
Enter your answer as a number in µg/mL; do not include the unit.

Here is how some compounds turned out for MIC.
[[record]]
chemical_smiles = "CN(CC[C@H](N)CC(=O)N[C@H]1C=C[C@H](n2ccc(N)nc2=O)O[C@@H]1C(=O)OCCc1ccccc1)C(=N)N"
property = "MIC"
units_symbol = "µg/mL"
value = 32

[[record]]
chemical_smiles = "CCCOC(=O)[C@H]1O[C@@H](n2ccc(N)nc2=O)C=C[C@@H]1NC(=O)C[C@@H](N)CCN(C)C(=N)N"
property = "MIC"
units_symbol = "µg/mL"
value = 32

[[record]]
chemical_smiles = "CN(CC[C@H](N)CC(=O)N[C@H]1C=C[C@H](n2ccc(N)nc2=O)O[C@@H]1C(N)=O)C(=N)N.Cl.Cl.Cl"
property = "MIC"
units_symbol = "µg/mL"
value = 32

[[record]]
chemical_smiles = "CCCCOC(=O)[C@H]1O[C@@H](n2ccc(N)nc2=O)C=C[C@@H]1NC(=O)C[C@@H](N)CCN(C)C(=N)N"
property = "MIC"
units_symbol = "µg/mL"
value = 64

[[record]]
chemical_smiles = "CN(CC[C@H](N)CC(=O)N[C@H]1C=C[C@H](n2ccc(N)nc2=O)O[C@@H]1C(=O)O)C(=N)N.Cl"
property = "MIC"
units_symbol = "µg/mL"
value = 128

[[record]]
chemical_smiles = "CCOC(=O)[C@H]1O[C@@H](n2ccc(N)nc2=O)C=C[C@@H]1NC(=O)C[C@@H](N)CCN(C)C(=N)N.Cl.Cl.Cl"
property = "MIC"
units_symbol = "µg/mL"
value = 32


Here is another compound to look at.
Q) Request the reported MIC associated with CN(CC[C@H](N)CC(=O)N[C@H]1C=C[C@H](n2ccc(N)nc2=O)O[C@@H]1C(=O)OCc1ccccc1)C(=N)N
A) 32

====

assay: Cytotoxicity against human MRC5 cells incubated for 24 hrs by MTS assay; format: toxicity, cell-based
Consider the following molecules and their measured CC50 at 24 h readings.
Give just the number in µg/mL; leave the unit off.

Some molecules with known CC50 at 24 h results, for comparison:
[[record]]
chemical_smiles = "CN(CC[C@H](N)CC(=O)N[C@H]1C=C[C@H](n2ccc(N)nc2=O)O[C@@H]1C(N)=O)C(=N)N.Cl.Cl.Cl"
property = "CC50 at 24 h"
value = 9.4

[[record]]
chemical_smiles = "CN(CC[C@H](N)CC(=O)N[C@H]1C=C[C@H](n2ccc(N)nc2=O)O[C@@H]1C(=O)O)C(=N)N.Cl"
property = "CC50 at 24 h"
value = 16.1


Q) Requested field: CC50 at 24 h. Item: COC(=O)[C@H]1O[C@@H](n2ccc(N)nc2=O)C=C[C@@H]1NC(=O)C[C@@H](N)CCN(C)C(=N)N
A) 18.3
